Reference source for all entries: the supplement of paper PMC13380429

# morphology score per entry
test system: Vero E6 infected with SARS-CoV-2; assay: morphology score (similarity to uninfected cells); higher = more like uninfected cells; conditions: 24 h
The response must contain the number and no unit.

Sample answers from the record:
>>> df
                                   compound          property  readoutnumber
0  CCC1(CC)C(=O)C=CNC1=O [pyrithyldione] (10 µM)  morphology score        -0.0471
1  Cc1cc(Nc2ccc(NC(=O)c3ccc(Nc4ccnc5ccccc45)cc3)cc2)nc(N)n1 (0.833333 µM)  morphology score        -0.0128

Which measured morphology score value corresponds to CCN1CCN(c2cc(-c3ccc(F)cc3)c3c(n2)CCCCCC3)CC1 [blonanserin] (10 µM) ?
0.248

Which measured morphology score value corresponds to CCN(CC)CCNC(=O)c1cc(S(C)(=O)=O)ccc1OC [tiapride] (10 µM) ?
0.0888

Which measured morphology score value corresponds to N[C@@H]1CCCN(c2c(/C=C3\SC(=O)NC3=O)cccc2-c2ccccc2)C1 (10 µM) ?
-0.0825

Which measured morphology score value corresponds to CCCCc1nn(-c2ccccc2C(F)(F)F)c(=O)n1Cc1ccc(-c2ccccc2S(=O)(=O)NC(=O)c2sccc2C)cc1 (10 µM) ?
0.0872

Which measured morphology score value corresponds to COc1ccc(C(=O)c2c(C)n(CCN3CCOCC3)c3cc(I)ccc23)cc1 (10 µM) ?
0.116

###

tested on: Vero E6 infected with SARS-CoV-2; experiment: inhibition of SARS-CoV-2 cytopathic effect; higher = more antiviral protection, active = above 15; conditions: 1 nM; 48 h
property: inhibition of SARS-CoV-2 cytopathic effect (%)
// return numeric value only (unit: %, not printed)

>>> df
                                   molecule  outputunit  readoutnumber
0  CC1(C)S[C@@H]2[C@H](NC(=O)[C@H](C(=O)O)c3ccsc3)C(=O)N2[C@H]1C(=O)O           %          -0.59
1  CN/C(=N\S(=O)(=O)c1ccc(Cl)cc1)N1C[C@H](c2ccccc2)C(c2ccc(Cl)cc2)=N1 (racemic)           %          -2.29
2  COc1ccc(S(=O)(=O)Nc2nc(-c3cccc([N+](=O)[O-])c3)cs2)cc1OC           %           2.08
3  C[C@@H](C(=O)O)c1ccc(-c2ccccc2)c(F)c1 (racemic) [flurbiprofen-(+/-)]           %          0.383
4  CC(=O)Nc1cccc2c1c(Sc1ccc(Cl)cc1)c(C)n2CC(=O)O           %          -2.31
5  Cc1c(Cl)cccc1S(=O)(=O)Nc1nc(CC(=O)N2CCN(C)CC2)cs1           %           1.65
6  CC(=O)[C@H]1CC[C@H]2[C@@H]3CC=C4C[C@@H](O)CC[C@]4(C)[C@H]3CC[C@]12C           %          -0.59
7    Clc1cccc(Nc2nnc(-c3ccccc3)c3ccccc23)c1           %           1.65

Which measured inhibition of SARS-CoV-2 cytopathic effect value corresponds to CN(C)CC(c1ccc(O)cc1)C1(O)CCCCC1 (stereo not given) ?
1.5

Which measured inhibition of SARS-CoV-2 cytopathic effect value corresponds to CC1CC(OC(=O)C(O)c2ccccc2)CC(C)(C)N1C (stereo not given) ?
0.81

Which measured inhibition of SARS-CoV-2 cytopathic effect value corresponds to C[C@]1(COc2ccc(N3CCC(Oc4ccc(OC(F)(F)F)cc4)CC3)cc2)Cn2cc([N+](=O)[O-])nc2O1 ?
-0.82

Which measured inhibition of SARS-CoV-2 cytopathic effect value corresponds to C[C@H](NC(=O)c1sccc1OCc1ccc(Cl)cc1)c1ccccc1 ?
-2.57

Which measured inhibition of SARS-CoV-2 cytopathic effect value corresponds to CN(C)C[C@H](O)Cn1c2ccc(Br)cc2c2cc(Br)ccc21 (racemic) ?
-2.04

Which measured inhibition of SARS-CoV-2 cytopathic effect value corresponds to CCCCOc1cc(C(=O)NCCN(CC)CC)c2ccccc2n1 ?
-2.14

Which measured inhibition of SARS-CoV-2 cytopathic effect value corresponds to COc1ccc2[nH]c(I)c(CCNC(C)=O)c2c1 ?
3.34

Which measured inhibition of SARS-CoV-2 cytopathic effect value corresponds to CCc1ccc(OCc2ccccc2C(=O)Nc2ccc3nc(C)cc(N)c3c2)cc1 ?
0.87

Which measured inhibition of SARS-CoV-2 cytopathic effect value corresponds to CN/C(=N\CCSCc1nc[nH]c1C)NC#N ?
0.42

Which measured inhibition of SARS-CoV-2 cytopathic effect value corresponds to O=C(COc1cccc2c(=O)[nH]ccc12)c1ccccc1 ?
-1.31

Which measured inhibition of SARS-CoV-2 cytopathic effect value corresponds to CCOc1ccc(NC(=S)N2CCC(C(O)(c3ccccc3)c3ccccc3)CC2)cc1 ?
-2.59

Which measured inhibition of SARS-CoV-2 cytopathic effect value corresponds to Cn1ncnc1COc1nn2c(-c3cc(F)ccc3F)nnc2cc1C(C)(C)C ?
3.33

Which measured inhibition of SARS-CoV-2 cytopathic effect value corresponds to Cc1cn([C@H]2C[C@H](N=[N+]=[N-])[C@@H](CO)O2)c(=O)[nH]c1=O ?
3.53

Which measured inhibition of SARS-CoV-2 cytopathic effect value corresponds to c1cnc2c([O][Ga]([O]c3cccc4cccnc34)[O]c3cccc4cccnc34)cccc2c1 [gallium-triquinolin-8-olate] ?
-0.23

Which measured inhibition of SARS-CoV-2 cytopathic effect value corresponds to CC(=O)Nc1ccc(NC(=S)NC(=O)c2ccc(C(C)(C)C)cc2)cc1 ?
-0.23

Which measured inhibition of SARS-CoV-2 cytopathic effect value corresponds to O=C(O)C(O)C(O)C(=O)O (stereo not given) ?
-3.77

Which measured inhibition of SARS-CoV-2 cytopathic effect value corresponds to C/C(=N\Nc1nnc2c(n1)[nH]c1c(C)cccc12)c1ccccn1 ?
0.125

Which measured inhibition of SARS-CoV-2 cytopathic effect value corresponds to OC(CCCN1CCCCC1)(c1ccccc1)c1ccccc1 ?
-5.55
